Sourced from patent EP3964526A1

Biological target: VEGF (as used in the VEGFR competition ELISA)
Sequence (P15692 whole entry): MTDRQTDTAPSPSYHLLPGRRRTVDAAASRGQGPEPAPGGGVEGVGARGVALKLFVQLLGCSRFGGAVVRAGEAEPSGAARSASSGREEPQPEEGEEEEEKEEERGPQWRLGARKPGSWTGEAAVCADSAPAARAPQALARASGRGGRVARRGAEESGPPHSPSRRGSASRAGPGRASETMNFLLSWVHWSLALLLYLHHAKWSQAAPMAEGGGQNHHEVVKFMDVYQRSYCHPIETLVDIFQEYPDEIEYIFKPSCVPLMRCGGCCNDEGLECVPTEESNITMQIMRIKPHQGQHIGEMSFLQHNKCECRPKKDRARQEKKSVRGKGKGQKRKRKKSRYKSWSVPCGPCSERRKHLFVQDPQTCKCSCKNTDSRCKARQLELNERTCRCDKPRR
Experiment: competition ELISA against hVEGR1, EC50 ratio to reference Luc
Measured Rel. activity hVEGR1 comp. ELISA (EC50Luc[nM]/EC50test[nM]) values are reported for all entries that follow.
Response body: numeric value in ratio, unit text excluded.

509-max (scFv) EIVMTQSPSTLSASVGDRVIITCQASQNIRIWLSWYQQKPGKAPKLLIYKASTLESGVPSRFSGSGSGTEFTLTISSLQPDDFATYYCQNNAHYSTNGGTFGQGTKLTVLGGGGGSGGGGSGGGGSGGGGSEVQLVESGGGLVQPGGSLRLSCTASGFSLSSYYMCWVRQAPGKGLEWVGCLDYVGDTDYASWAKGRFTISKDASKNTVYLQMNSLRAEDTAVYYCARTDDSRGWGLNIWGQGTLVTVSS ... 13
567-min (scFv) EIVMTQSPSTLSASVGDRVIITCQADQSIYIWLSWYQQKPGKAPKLLIYKASTLESGVPSRFSGSGSGAEFTLTISSLQPDDFATYYCQNNAHYSTNGGTFGQGTKLTVLGGGGGSGGGGSGGGGSGGGGSEVQLVESGGGLVQPGGSLRLSCAASGFSLSDYYMCWVRQAPGKGLEWVSCLDYFGSTDDASWAKGRFTISRDNSKNTLYLQMNSLRAEDTAVYYCAKTDDSRGWGLNIWGQGTLVTVSS ... 57

In the following, a different binder is considered.
Challenge: Any idea what Rel. activity hVEGR1 comp. ELISA (EC50Luc[nM]/EC50test[nM]) was measured for 509-min (scFv) EIVMTQSPSTLSASVGDRVIITCQASQNIRIWLSWYQQKPGKAPKLLIYKASTLESGVPSRFSGSGSGAEFTLTISSLQPDDFATYYCQNNAHYSTNGGTFGQGTKLTVLGGGGGSGGGGSGGGGSGGGGSEVQLVESGGGLVQPGGSLRLSCAASGFSLSSYYMCWVRQAPGKGLEWVSCLDYVGDTDYASWAKGRFTISRDNSKNTLYLQMNSLRAEDTAVYYCAKTDDSRGWGLNIWGQGTLVTVSS ?
Response given: 2.9
